Please provide measured MIC for the entries that follow.
Test system: A. baumannii ATCC 19606
assayName: CLSI broth dilution MIC determination
Format: cell-based
conditionNotes: Acinetobacter baumannii, ATCC19606; A. baumannii ATCC 19606 (MP-15); read-out: MIC
Value expressed in µg/mL; do not type the unit.

What does the record list as MIC for CC[C@H]1OC(=O)[C@@](C)(F)C(=O)[C@H](C)[C@@H](O[C@@H]2OC(C)CC(N(C)C)C2O)[C@](C)(OC)C[C@@H](C)C(=O)[C@H](C)[C@H]2N(CC#CCn3cc(-c4cccc(F)n4)nn3)C(=O)O[C@]12C (stereo partly drawn) ?
8

Okay, and CC[C@H]1OC(=O)[C@@](C)(F)C(=O)[C@H](C)[C@@H](O[C@@H]2OC(C)CC(N(C)C)C2O)[C@](C)(OC)C[C@@H](C)C(=O)[C@H](C)[C@H]2N(CC#CCn3cc(-c4cnccn4)nn3)C(=O)O[C@]12C (stereo partly drawn) ?
16

Okay, and CC[C@H]1OC(=O)[C@@](C)(F)C(=O)[C@H](C)[C@@H](O[C@@H]2OC(C)CC(N(C)C)C2O)[C@](C)(OC)C[C@@H](C)C(=O)[C@H](C)[C@H]2N(CC#CCn3cc(-c4cc(OC)ccn4)nn3)C(=O)O[C@]12C (stereo partly drawn) ?
16

Okay, and CC[C@H]1OC(=O)[C@H](C)C(=O)[C@H](C)[C@@H](O[C@@H]2OC(C)CC(N(C)C)C2O)[C@](C)(OC)C[C@@H](C)C(=O)[C@H](C)[C@H]2N(NCCCn3nc4ccccc4n3)C(=O)O[C@]12C (stereo partly drawn) ?
32

Okay, and CC[C@H]1OC(=O)[C@@](C)(F)C(=O)[C@H](C)[C@@H](O[C@@H]2OC(C)CC(N(C)C)C2O)[C@](C)(OC)C[C@@H](C)C(=O)[C@H](C)[C@H]2N(CC#CCn3cc(-c4cc(N)ncn4)nn3)C(=O)O[C@]12C (stereo partly drawn) ?
32

Okay, and CC[C@H]1OC(=O)[C@H](C)C(=O)[C@H](C)[C@@H](O[C@@H]2OC(C)CC(N(C)C)C2O)[C@](C)(OC)C[C@@H](C)C(=O)[C@H](C)[C@H]2N(NCCCn3nnc4ccccc43)C(=O)O[C@]12C (stereo partly drawn) ?
8

Okay, and CC[C@H]1OC(=O)[C@@](C)(F)C(=O)[C@H](C)[C@@H](O[C@@H]2OC(C)CC(N(C)C)C2O)[C@](C)(OC)C[C@@H](C)C(=O)[C@H](C)[C@H]2N(CC#CCn3cc(-c4cc(N)ccn4)nn3)C(=O)O[C@]12C (stereo partly drawn) ?
8

###

System: K. pneumoniae TEM-10
assayName: CLSI broth dilution MIC determination
Assay type: cell-based
conditionNotes: Gram-negative
assayReadout: MIC

What does the record list as MIC for CC[C@H]1OC(=O)[C@H](C)C(=O)[C@H](C)[C@@H](O[C@@H]2OC(C)CC(N(C)C)C2O)[C@](C)(OC)C[C@@H](C)C(=O)[C@H](C)[C@H]2N(C/C=C/Cn3nnc(-c4ccccn4)n3)C(=O)O[C@]12C (some centres unmarked) ?
> 32 µg/mL

Okay, and CC[C@H]1OC(=O)[C@H](C)C(=O)[C@H](C)[C@@H](O[C@@H]2OC(C)CC(N(C)C)C2O)[C@](C)(OC)C[C@@H](C)C(=O)[C@H](C)[C@H]2N(C/C=C/Cn3cc(-c4nccs4)nn3)C(=O)O[C@]12C (some centres unmarked) ?
> 32 µg/mL

###

System: K. pneumoniae TEM-10
assayName: CLSI broth dilution MIC determination
Type: cell-based
conditionNotes: Gram-negative
Please provide measured MIC for the entries that follow.

What does the record list as MIC for CC[C@H]1OC(=O)[C@@](C)(F)C(=O)[C@H](C)[C@@H](O[C@@H]2OC(C)CC(N(C)C)C2O)[C@](C)(OC)C[C@@H](C)C(=O)[C@H](C)[C@H]2N(C/C=C/Cn3cc(-c4ccccn4)nn3)C(=O)O[C@]12C (stereo partly drawn) ?
16 µg/mL

Okay, and CC[C@H]1OC(=O)[C@@](C)(F)C(=O)[C@H](C)[C@@H](O[C@@H]2OC(C)CC(N(C)C)C2O)[C@](C)(OC)C[C@@H](C)C(=O)[C@H](C)[C@H]2N(C/C=C\Cn3cc(-c4cccc(N)c4)nn3)C(=O)O[C@]12C (stereo partly drawn) ?
> 32 µg/mL

Okay, and CC[C@H]1OC(=O)[C@@](C)(F)C(=O)[C@H](C)[C@@H](O[C@@H]2OC(C)CC(N(C)C)C2O)[C@](C)(OC)C[C@@H](C)C(=O)[C@H](C)[C@H]2N(C/C=C/Cn3cc(-c4nccs4)nn3)C(=O)O[C@]12C (stereo partly drawn) ?
32 µg/mL

Okay, and CC[C@H]1OC(=O)[C@H](C)C(=O)[C@H](C)[C@@H](O[C@@H]2OC(C)CC(N(C)C)C2O)[C@](C)(OC)C[C@@H](C)C(=O)[C@H](C)[C@H]2N(CC3CC3Cn3cc(-c4cccc(N)c4)nn3)C(=O)O[C@]12C (single isomer, unassigned) [FSM-100434] ?
> 32 µg/mL

Okay, and CC[C@H]1OC(=O)[C@@](C)(F)C(=O)[C@H](C)[C@@H](O[C@@H]2OC(C)CC(N(C)C)C2O)[C@](C)(OC)C[C@@H](C)C(=O)[C@H](C)[C@H]2N(C/C=C/Cn3nnc(-c4ccccn4)n3)C(=O)O[C@]12C (stereo partly drawn) ?
> 32 µg/mL

Okay, and CC[C@H]1OC(=O)[C@H](C)C(=O)[C@H](C)[C@@H](O[C@@H]2OC(C)CC(N(C)C)C2O)[C@](C)(OC)C[C@@H](C)C(=O)[C@H](C)[C@H]2N(CC3CC3Cn3cc(-c4cccc(N)c4)nn3)C(=O)O[C@]12C (stereo partly drawn) [FSM-100429] ?
> 32 µg/mL

###

System: P. aeruginosa MP-8 PAO1:mex (mex-oprM-deletion)
assayName: CLSI broth dilution MIC determination
Type: cell-based
conditionNotes: Pseudomonas aeruginosa, PAO1
assayReadout: MIC (µg/mL)
Value expressed in µg/mL; do not type the unit.

What does the record list as MIC for CC[C@H]1OC(=O)[C@H](C)C(=O)[C@H](C)[C@@H](O[C@@H]2OC(C)CC(N(C)C)C2O)[C@](C)(OC)C[C@@H](C)C(=O)[C@H](C)[C@H]2N(CC#CCn3cc(-c4cccc(N)n4)nn3)C(=O)O[C@]12C (stereo partly shown) ?
4

Okay, and CC[C@H]1OC(=O)[C@@](C)(F)C(=O)[C@H](C)[C@@H](O[C@@H]2OC(C)CC(N(C)C)C2O)[C@](C)(OC)C[C@@H](C)C(=O)[C@H](C)[C@H]2N(CC#CCn3cc(-c4cc(OC)ccn4)nn3)C(=O)O[C@]12C (stereo partly shown) ?
8

Okay, and CC[C@H]1OC(=O)[C@@](C)(F)C(=O)[C@H](C)[C@@H](O[C@@H]2OC(C)CC(N(C)C)C2O)[C@](C)(OC)C[C@@H](C)C(=O)[C@H](C)[C@H]2N(CC#CCn3cc(-c4ncccn4)nn3)C(=O)O[C@]12C (stereo partly shown) ?
8

Okay, and CC[C@H]1OC(=O)[C@@](C)(F)C(=O)[C@H](C)[C@@H](O[C@@H]2OC(C)CC(N(C)C)C2O)[C@](C)(OC)C[C@@H](C)C(=O)[C@H](C)[C@H]2N(CC#CCn3cc(-c4cnc(N)s4)nn3)C(=O)O[C@]12C (stereo partly shown) ?
4

###

Please provide measured MIC for the entries that follow.
Test system: S. aureus erm A genotype
assayName: CLSI broth dilution MIC determination
Assay type: cell-based
conditionNotes: Staphylococcus aureus; S. aureus erm A genotype (MP-620 UNT-146); read-out: MIC
Value expressed in µg/mL; do not type the unit.

What does the record list as MIC for CC[C@H]1OC(=O)[C@@](C)(F)C(=O)[C@H](C)[C@@H](O[C@@H]2OC(C)CC(N(C)C)C2O)[C@](C)(OC)C[C@@H](C)C(=O)[C@H](C)[C@H]2N(CC#CCn3cc(-c4cc(F)ccn4)nn3)C(=O)O[C@]12C (stereo partly shown) [FSM-100563] ?
16

Okay, and CC[C@H]1OC(=O)[C@@](C)(F)C(=O)[C@H](C)[C@@H](O[C@@H]2OC(C)CC(N(C)C)C2O)[C@](C)(OC)C[C@@H](C)C(=O)[C@H](C)[C@H]2N(CC#CCn3cc(-c4cccc(N)n4)nn3)C(=O)O[C@]12C (stereo partly shown) [FSM-100573] ?
16

###

Tested on: S. aureus MRSA: USA300
assayName: CLSI broth dilution MIC determination
Assay type: cell-based
conditionNotes: Staphylococcus aureus; S. aureus MRSA: USA300 (MP-549, msr(a)); read-out: MIC
assayReadout: MIC (µg/mL)
Value expressed in µg/mL; do not type the unit.

What does the record list as MIC for CC[C@H]1OC(=O)[C@@](C)(F)C(=O)[C@H](C)[C@@H](O[C@@H]2OC(C)CC(N(C)C)C2O)[C@](C)(OC)C[C@@H](C)C(=O)[C@H](C)[C@H]2N(CC#CCn3cc(-c4nccc(N)n4)nn3)C(=O)O[C@]12C (stereo partly shown) ?
2

Okay, and CC[C@H]1OC(=O)[C@H](C)C(=O)[C@H](C)[C@@H](O[C@@H]2OC(C)CC(N(C)C)C2O)[C@](C)(OC)C[C@@H](C)C(=O)[C@H](C)[C@H]2N(CC#CCn3cc(-c4cccnn4)nn3)C(=O)O[C@]12C (stereo partly shown) ?
0.5

Okay, and CC[C@H]1OC(=O)[C@@](C)(F)C(=O)[C@H](C)[C@@H](O[C@@H]2OC(C)CC(N(C)C)C2O)[C@](C)(OC)C[C@@H](C)C(=O)[C@H](C)[C@H]2N(CC#CCn3cc(-c4cc(N)ccn4)nn3)C(=O)O[C@]12C (stereo partly shown) ?
0.25

Okay, and CC[C@H]1OC(=O)[C@@](C)(F)C(=O)[C@H](C)[C@@H](O[C@@H]2OC(C)CC(N(C)C)C2O)[C@](C)(OC)C[C@@H](C)C(=O)C[C@H]2N(CCCCn3cc(-c4cccc(N)c4)nn3)C(=O)O[C@]12C (stereo partly shown) ?
32
